SUBJECT OF TEST: CYP2D6 (Homo sapiens, UniProt P10635)
Sequence (P10635 whole entry): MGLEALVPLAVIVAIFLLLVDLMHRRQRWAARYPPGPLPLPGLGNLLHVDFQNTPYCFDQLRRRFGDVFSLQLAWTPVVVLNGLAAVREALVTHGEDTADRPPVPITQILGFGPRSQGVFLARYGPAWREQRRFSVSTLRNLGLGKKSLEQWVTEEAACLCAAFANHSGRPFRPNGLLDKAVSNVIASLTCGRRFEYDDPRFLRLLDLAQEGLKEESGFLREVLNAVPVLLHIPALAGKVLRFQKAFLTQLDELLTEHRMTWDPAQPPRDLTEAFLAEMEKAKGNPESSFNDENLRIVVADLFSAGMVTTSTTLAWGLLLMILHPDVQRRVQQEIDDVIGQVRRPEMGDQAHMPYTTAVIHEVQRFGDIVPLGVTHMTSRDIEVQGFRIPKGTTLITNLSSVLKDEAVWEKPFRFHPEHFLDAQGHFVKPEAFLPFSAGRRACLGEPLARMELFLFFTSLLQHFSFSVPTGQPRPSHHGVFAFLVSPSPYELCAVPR
EXPERIMENT DESCRIPTION: Direct CYP450 inhibition in human liver microsomes (dextromethorphan O-demethylation)
APPLIED CONDITIONS: direct inhibition (no preincubation); human liver microsomes; substrate dextromethorphan
MEASUREMENT LABEL: IC50 (µM)
Answers are plain numbers, in µM.

Value lookup for IC50; key = CC(N)Cc1cccc(C(F)(F)F)c1.Cl (stereo not shown) [nFFA]
16

###

SUBJECT OF TEST: OAT1 (Homo sapiens)
Construct: host or cells: HEK293
Sequence (Q4U2R8 1-563): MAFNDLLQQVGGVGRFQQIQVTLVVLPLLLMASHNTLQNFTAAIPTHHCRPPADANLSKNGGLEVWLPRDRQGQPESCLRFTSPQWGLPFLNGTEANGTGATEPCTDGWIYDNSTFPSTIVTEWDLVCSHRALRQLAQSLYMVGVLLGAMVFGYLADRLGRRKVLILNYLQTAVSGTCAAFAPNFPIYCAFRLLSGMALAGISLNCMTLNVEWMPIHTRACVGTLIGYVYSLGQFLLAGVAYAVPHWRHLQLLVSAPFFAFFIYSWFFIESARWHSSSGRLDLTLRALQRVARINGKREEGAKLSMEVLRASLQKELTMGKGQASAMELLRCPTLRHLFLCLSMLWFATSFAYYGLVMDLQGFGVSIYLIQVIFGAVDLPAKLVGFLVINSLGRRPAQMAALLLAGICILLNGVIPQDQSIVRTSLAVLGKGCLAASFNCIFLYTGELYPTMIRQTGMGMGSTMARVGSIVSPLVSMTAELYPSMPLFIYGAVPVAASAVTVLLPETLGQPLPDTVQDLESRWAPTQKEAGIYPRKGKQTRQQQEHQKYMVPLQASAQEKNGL
EXPERIMENT DESCRIPTION: Transporter inhibition, uptake of [3H]-p-aminohippurate in HEK293 cells
Assay type: in vitro ADME
APPLIED CONDITIONS: HEK293; probe [3H]-p-aminohippurate 1 μM; read-out: IC50
pIC50: −log10 of the molar value.
MEASUREMENT LABEL: pIC50

Report pIC50 for CC(N)Cc1cccc(C(F)(F)F)c1.Cl (stereo not shown) please.
< 4.30

###

SUBJECT OF TEST: CYP2D6 (Homo sapiens)
EXPERIMENT DESCRIPTION: Time- and metabolism-dependent inhibition, 30-min preincubation with or without NADPH (dextromethorphan O-demethylation)
APPLIED CONDITIONS: both, human, pooled human liver microsomes, pH 7.4, probe dextromethorphan (O-demethylation), % inhibition (- NADPH), 30-min preincubation in the absence of NADPH
MEASUREMENT LABEL: inhibition at 30 min (%)
Give bare numbers, in %.

Tell me the measured inhibition at 30 min of CCNC(C)Cc1cccc(C(F)(F)F)c1 (racemic) [FFA, reference compound] , please.
89

###

EXPERIMENT DESCRIPTION: Plasma protein binding, Rapid Equilibrium Device
Assay type: in vitro ADME
APPLIED CONDITIONS: pooled rat or dog plasma, pH 7.4, range
MEASUREMENT LABEL: fraction unbound at 4 h

Entry CCNC(C)Cc1cccc(C(F)(F)F)c1 (racemic) [FFA, reference compound] has what fraction unbound at 4 h?
0.378 to 0.538

###

SUBJECT OF TEST: OATP1B1 (Homo sapiens)
Construct: host or cells: HEK293
Sequence (Q9Y6L6 whole entry): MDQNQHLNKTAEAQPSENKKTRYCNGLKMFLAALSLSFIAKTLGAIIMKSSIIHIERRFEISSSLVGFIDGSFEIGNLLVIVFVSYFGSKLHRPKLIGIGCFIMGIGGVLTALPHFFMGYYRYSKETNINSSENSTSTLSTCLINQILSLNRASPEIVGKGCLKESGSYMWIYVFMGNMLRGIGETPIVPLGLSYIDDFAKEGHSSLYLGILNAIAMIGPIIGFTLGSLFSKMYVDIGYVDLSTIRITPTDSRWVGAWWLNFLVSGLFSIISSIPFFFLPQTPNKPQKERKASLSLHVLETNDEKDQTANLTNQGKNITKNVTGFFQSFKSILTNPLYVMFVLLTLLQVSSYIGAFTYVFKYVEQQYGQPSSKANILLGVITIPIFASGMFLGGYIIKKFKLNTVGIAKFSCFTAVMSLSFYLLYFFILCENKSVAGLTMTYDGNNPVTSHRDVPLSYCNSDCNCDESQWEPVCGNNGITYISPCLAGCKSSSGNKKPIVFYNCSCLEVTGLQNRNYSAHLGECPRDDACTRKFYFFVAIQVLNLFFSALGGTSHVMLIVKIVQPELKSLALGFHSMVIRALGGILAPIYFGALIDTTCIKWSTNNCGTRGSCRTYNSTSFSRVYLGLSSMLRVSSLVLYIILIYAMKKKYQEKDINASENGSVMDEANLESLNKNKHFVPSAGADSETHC
EXPERIMENT DESCRIPTION: Transporter inhibition, uptake of [3H]-estradiol-17β-glucuronide in HEK293 cells
Assay type: in vitro ADME
APPLIED CONDITIONS: HEK293; probe [3H]-estradiol-17β-glucuronide 50 nM; read-out: IC50
pIC50: −log10 of the molar value.
MEASUREMENT LABEL: pIC50

If you can, please state the reported pIC50 value of CC(N)Cc1cccc(C(F)(F)F)c1.Cl (stereo not shown) .
< 4.30

###

SUBJECT OF TEST: P‐gp (Homo sapiens)
Construct: host or cells: Caco-2
Sequence (P08183 whole entry): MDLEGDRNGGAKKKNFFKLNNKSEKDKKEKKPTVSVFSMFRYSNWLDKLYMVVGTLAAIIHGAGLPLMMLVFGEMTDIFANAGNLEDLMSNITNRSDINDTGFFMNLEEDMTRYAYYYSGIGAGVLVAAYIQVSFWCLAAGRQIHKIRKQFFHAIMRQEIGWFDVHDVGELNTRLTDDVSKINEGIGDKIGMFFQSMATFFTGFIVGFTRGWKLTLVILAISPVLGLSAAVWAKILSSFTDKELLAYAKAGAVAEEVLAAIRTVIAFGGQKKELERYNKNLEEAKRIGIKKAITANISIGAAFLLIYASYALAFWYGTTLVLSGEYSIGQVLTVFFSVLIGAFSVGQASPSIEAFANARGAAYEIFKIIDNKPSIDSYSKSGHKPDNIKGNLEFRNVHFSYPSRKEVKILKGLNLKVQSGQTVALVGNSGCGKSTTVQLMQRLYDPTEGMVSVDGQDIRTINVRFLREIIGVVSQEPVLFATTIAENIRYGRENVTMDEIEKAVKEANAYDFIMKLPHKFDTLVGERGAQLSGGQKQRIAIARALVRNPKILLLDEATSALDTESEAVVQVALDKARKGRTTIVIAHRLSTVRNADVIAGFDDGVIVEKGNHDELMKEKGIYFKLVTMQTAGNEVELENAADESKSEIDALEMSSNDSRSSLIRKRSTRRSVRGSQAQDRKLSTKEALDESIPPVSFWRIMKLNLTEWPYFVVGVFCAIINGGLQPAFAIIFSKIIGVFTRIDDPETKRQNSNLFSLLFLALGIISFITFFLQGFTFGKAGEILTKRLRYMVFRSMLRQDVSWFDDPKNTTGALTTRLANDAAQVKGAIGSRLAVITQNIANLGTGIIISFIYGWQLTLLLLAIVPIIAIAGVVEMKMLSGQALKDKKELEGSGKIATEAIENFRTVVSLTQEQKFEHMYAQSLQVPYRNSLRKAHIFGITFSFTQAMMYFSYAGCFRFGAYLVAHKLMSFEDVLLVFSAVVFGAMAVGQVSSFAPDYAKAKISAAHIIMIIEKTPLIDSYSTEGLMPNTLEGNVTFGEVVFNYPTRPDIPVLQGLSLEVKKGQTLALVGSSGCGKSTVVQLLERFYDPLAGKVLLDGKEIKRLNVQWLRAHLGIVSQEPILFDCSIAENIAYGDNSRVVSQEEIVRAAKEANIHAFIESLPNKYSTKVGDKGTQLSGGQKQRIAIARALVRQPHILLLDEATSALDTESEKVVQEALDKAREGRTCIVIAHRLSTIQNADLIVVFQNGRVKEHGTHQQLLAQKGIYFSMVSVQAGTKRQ
EXPERIMENT DESCRIPTION: Transporter inhibition, bidirectional permeability of digoxin in Caco-2 cells
Type: in vitro ADME
pIC50: −log10 of the molar value.
MEASUREMENT LABEL: pIC50

Please give the measured pIC50 for this molecule: CCNC(C)Cc1cccc(C(F)(F)F)c1 (racemic) [FFA, reference compound]
< 4.00

###

Test system: CYP2B6 mRNA
EXPERIMENT DESCRIPTION: CYP450 induction in cultured human hepatocytes, mRNA by qRT-PCR
Type: cell-based
APPLIED CONDITIONS: human, cultured cryopreserved hepatocytes, lot HC10-10; hepatocytes HC10‐10; ± standard error; read-out: Basic kinetic model: EC50
MEASUREMENT LABEL: EC50 at 3 days
Number plus unit, in that order.

Please report the recorded EC50 at 3 days for CCNC(C)Cc1cccc(C(F)(F)F)c1 (racemic) [FFA, reference compound] .
4.61 µM

###

Test system: CYP3A4 mRNA
EXPERIMENT DESCRIPTION: in vitro
APPLIED CONDITIONS: human, Basic kinetic model: EC50, hepatocytes HC7‐8; ± standard error
MEASUREMENT LABEL: pEC50
Answers are plain numbers, as −log10 of the molar value.

Checklist item: pEC50 tested on CYP3A4 mRNA, entry CCNC(C)Cc1cccc(C(F)(F)F)c1 (racemic) [FFA, reference compound] , value?
5.07

###

Test system: CYP3A4 mRNA
EXPERIMENT DESCRIPTION: in vitro
APPLIED CONDITIONS: human, Basic kinetic model: EC50, hepatocytes HC10‐10; ± standard error
MEASUREMENT LABEL: EC50 (µM)
Give bare numbers, in µM.

// map CCNC(C)Cc1cccc(C(F)(F)F)c1 (racemic) [FFA, reference compound] to recorded EC50 (system: CYP3A4 mRNA)
9.05

###

SUBJECT OF TEST: CYP1A2 (Homo sapiens)
Sequence (P05177 whole entry): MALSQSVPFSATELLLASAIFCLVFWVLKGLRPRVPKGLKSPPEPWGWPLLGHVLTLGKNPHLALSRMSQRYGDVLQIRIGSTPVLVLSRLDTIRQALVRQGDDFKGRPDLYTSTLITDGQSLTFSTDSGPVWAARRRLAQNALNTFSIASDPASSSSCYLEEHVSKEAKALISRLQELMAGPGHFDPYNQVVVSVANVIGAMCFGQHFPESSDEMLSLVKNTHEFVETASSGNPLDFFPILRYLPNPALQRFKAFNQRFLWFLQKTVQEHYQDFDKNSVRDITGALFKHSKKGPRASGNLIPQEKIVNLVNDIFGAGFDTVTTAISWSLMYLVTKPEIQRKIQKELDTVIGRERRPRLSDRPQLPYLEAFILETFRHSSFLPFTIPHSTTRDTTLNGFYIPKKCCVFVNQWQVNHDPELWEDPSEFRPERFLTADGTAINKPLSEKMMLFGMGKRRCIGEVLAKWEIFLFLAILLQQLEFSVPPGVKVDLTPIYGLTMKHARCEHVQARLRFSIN
EXPERIMENT DESCRIPTION: Direct CYP450 inhibition in human liver microsomes (phenacetin O-dealkylation)
APPLIED CONDITIONS: direct inhibition; human liver microsomes; substrate phenacetin
pIC50: −log10 of the molar value.
MEASUREMENT LABEL: pIC50

Look up pIC50 with CYP1A2 (Homo sapiens) for this compound: CC(N)Cc1cccc(C(F)(F)F)c1.Cl (stereo not shown) [nFFA]
< 4.00

###

SUBJECT OF TEST: CYP2C9 (Homo sapiens, UniProt P11712)
Sequence (P11712 whole entry): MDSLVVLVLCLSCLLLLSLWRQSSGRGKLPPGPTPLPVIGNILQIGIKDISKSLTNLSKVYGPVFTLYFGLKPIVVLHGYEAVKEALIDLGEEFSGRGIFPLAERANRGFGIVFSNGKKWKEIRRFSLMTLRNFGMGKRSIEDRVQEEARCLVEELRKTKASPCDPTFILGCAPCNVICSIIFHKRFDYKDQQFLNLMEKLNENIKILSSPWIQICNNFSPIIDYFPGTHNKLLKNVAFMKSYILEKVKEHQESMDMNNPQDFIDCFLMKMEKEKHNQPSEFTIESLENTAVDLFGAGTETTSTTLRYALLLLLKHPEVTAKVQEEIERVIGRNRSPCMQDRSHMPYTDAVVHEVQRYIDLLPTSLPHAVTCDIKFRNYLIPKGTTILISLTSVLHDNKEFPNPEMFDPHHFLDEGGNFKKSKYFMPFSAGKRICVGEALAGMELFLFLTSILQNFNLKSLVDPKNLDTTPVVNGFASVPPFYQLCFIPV
EXPERIMENT DESCRIPTION: Direct CYP450 inhibition in human liver microsomes (diclofenac 4'-hydroxylation)
pIC50: −log10 of the molar value.
MEASUREMENT LABEL: pIC50

Fill in: pIC50 of CCNC(C)Cc1cccc(C(F)(F)F)c1 (racemic) [FFA, reference compound] is ___
< 4.22

###

Test system: CYP2B6 mRNA
EXPERIMENT DESCRIPTION: CYP450 induction in cultured human hepatocytes, mRNA by qRT-PCR
Assay type: cell-based
APPLIED CONDITIONS: human, cultured cryopreserved hepatocytes, lot HC10-8; hepatocytes HC10‐8; ± standard error; read-out: Basic kinetic model: EC50
MEASUREMENT LABEL: EC50 at 3 days (µM)
One number for each entry, in µM.

// lookup EC50 at 3 days for CCNC(C)Cc1cccc(C(F)(F)F)c1 (racemic) [FFA, reference compound]
13.6

###

SUBJECT OF TEST: BCRP (Homo sapiens)
Construct: host or cells: MDCKII
Sequence (Q9UNQ0 whole entry): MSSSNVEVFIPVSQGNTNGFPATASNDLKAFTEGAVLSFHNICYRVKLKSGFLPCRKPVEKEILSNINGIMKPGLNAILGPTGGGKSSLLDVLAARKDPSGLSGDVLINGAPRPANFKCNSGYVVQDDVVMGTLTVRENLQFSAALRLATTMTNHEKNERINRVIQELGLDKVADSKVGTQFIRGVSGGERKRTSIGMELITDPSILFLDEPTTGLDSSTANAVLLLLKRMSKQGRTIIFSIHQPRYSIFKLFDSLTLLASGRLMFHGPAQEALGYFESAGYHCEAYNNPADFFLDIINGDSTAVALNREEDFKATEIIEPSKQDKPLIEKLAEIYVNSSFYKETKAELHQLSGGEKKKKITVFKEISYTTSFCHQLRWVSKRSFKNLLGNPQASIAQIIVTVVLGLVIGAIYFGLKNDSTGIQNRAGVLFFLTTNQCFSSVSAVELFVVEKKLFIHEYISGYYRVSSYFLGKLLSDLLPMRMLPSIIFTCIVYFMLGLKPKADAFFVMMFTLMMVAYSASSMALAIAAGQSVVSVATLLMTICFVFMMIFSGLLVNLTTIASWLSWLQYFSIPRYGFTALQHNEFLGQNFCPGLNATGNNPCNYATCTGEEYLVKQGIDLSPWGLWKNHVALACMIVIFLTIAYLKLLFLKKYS
EXPERIMENT DESCRIPTION: Transporter inhibition, bidirectional permeability of prazosin in MDCKII-BCRP cells
Format: in vitro ADME
APPLIED CONDITIONS: MDCKII; probe prazosin 1 µM; read-out: IC50
MEASUREMENT LABEL: IC50

Look up IC50: CC(N)Cc1cccc(C(F)(F)F)c1.Cl (stereo not shown)
> 50 µM

###

System: CYP2B6 mRNA
EXPERIMENT DESCRIPTION: CYP450 induction in cultured human hepatocytes, mRNA by qRT-PCR
Assay type: cell-based
APPLIED CONDITIONS: hepatocytes HC10‐10; ± standard error; read-out: Basic kinetic model: EC50
MEASUREMENT LABEL: EC50
Remember to follow the number with its unit.

I would be grateful if you could share the reported EC50 for CC(N)Cc1cccc(C(F)(F)F)c1.Cl (stereo not shown) .
8.81 µM

###

Tested on: CYP3A4 mRNA
EXPERIMENT DESCRIPTION: in vitro
APPLIED CONDITIONS: read-out: Basic kinetic model: EC50; hepatocytes HC10‐8; ± standard error
MEASUREMENT LABEL: EC50 (µM)
Give bare numbers, in µM.

For CYP3A4 mRNA, provide EC50 of CC(N)Cc1cccc(C(F)(F)F)c1.Cl (stereo not shown) please.
37.8

###

SUBJECT OF TEST: CYP2D6 (Homo sapiens, UniProt P10635)
EXPERIMENT DESCRIPTION: Direct CYP450 inhibition in human liver microsomes (dextromethorphan O-demethylation)
MEASUREMENT LABEL: IC50

Item CCNC(C)Cc1cccc(C(F)(F)F)c1 (racemic) [FFA, reference compound] has what recorded IC50?
4.7 µM

Source listed as paper PMC9124818.
